target-or-test-system: CaRvs167-3
method: SPOT peptide array binding signal intensity (averaged, normalized) (arbitrary units (background-subtracted, floor 0; scale differs between SH3 domains)); higher = stronger binding of the SH3 domain to the peptide
measurement-type: SPOT peptide array binding signal intensity

{"binder": "EVTPKVPERPSRRKT", "result-comparator": "=", "value-observed": 2}
{"binder": "RPVPRRPSQPLNTLS", "result-comparator": "=", "value-observed": 6}
{"binder": "ATNVPVAPPPPPASL", "result-comparator": "=", "value-observed": 6.5}
{"binder": "KFIPSRPAPKPPSSA", "result-comparator": "=", "value-observed": 2}
{"binder": "HPRFVSPRIPSRIVK", "result-comparator": "=", "value-observed": 5.75}
{"binder": "NNQRRKPLLLNIGDH", "result-comparator": "=", "value-observed": 35.8}
{"binder": "EQEEIAPSLPSRNSI", "result-comparator": "=", "value-observed": 1}
{"binder": "PHNPSPFFPPPDFND", "result-comparator": "≤", "value-observed": 0}
{"binder": "LPMNIQPDLPPRKIM", "result-comparator": "=", "value-observed": 0.5}
{"binder": "RFKRHRLEFPFNESE", "result-comparator": "=", "value-observed": 211}
{"binder": "DTIDNVKSKIQDKEG", "result-comparator": "=", "value-observed": 2.5}
{"binder": "IVNKPLPPLPVAGSS", "result-comparator": "≤", "value-observed": 0}
{"binder": "NRARYLPQNPDIIAG", "result-comparator": "=", "value-observed": 1.75}
{"binder": "KDKSRPPRPPPKPLH", "result-comparator": "=", "value-observed": 0.5}
{"binder": "FVLRYYILIPHEQWD", "result-comparator": "=", "value-observed": 119}
